ASSAYED SYSTEM: recombinant human IL-23 (p19/p40) (human) (UniProt Q9NPF7)
Sequence (Q9NPF7 20-189 limits assumed, chain 1 of 2): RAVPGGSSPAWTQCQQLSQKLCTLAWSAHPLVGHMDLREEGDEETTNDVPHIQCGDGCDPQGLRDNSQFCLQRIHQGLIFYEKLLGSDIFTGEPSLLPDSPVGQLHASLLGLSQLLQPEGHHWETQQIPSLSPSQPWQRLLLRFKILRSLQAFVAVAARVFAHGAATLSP
Sequence (P29460 23-328 limits assumed, chain 2 of 2, further chain): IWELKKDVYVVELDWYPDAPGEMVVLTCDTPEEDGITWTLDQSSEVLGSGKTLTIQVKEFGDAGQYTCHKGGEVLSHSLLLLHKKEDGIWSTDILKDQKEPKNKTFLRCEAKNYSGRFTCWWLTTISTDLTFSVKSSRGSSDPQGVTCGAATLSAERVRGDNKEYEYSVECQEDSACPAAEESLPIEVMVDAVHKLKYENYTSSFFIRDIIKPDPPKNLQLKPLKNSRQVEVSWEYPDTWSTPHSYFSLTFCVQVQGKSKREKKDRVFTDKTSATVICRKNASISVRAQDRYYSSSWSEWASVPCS
ASSAY TEXT: cell-based or functional assay
Binarize IC50, splenocyte assay, 19 pM hIL-23 at 5 pM; below is true, at or above is false.

Sample answers from the record:
[[record]]
binder = "P23IL119A3-9GS-ALB1-9GS-81A12 (bispecific antibody, part only; not given: anti-albumin Nanobody, part only) chain, part: EVQLVESGGGLVQAGGSLRLSCAASGRIFSLPASGNIFNLLTIAWHRQAPGMQRELVATINSGSRTNYADSVKGRFTISRDNAQKTVYLQMNNLKPEDTAVYYCQTSGSGSPNFWGQGTQVTVSSGGGGSGGGSGGGGSGGGSEVQLVESGGGLVQAGGSLRLSCAASGRTLSSYAMGWFRQAPGKEREFVARISQGGTAIYYADSVKGRFTISRDNAKNTVYLQMNSLKPEDTAVYYCAKDPSPYYRGSAYLLSGSYDSWGQGTQVTVSS"
group = "true"

[[record]]
binder = "P23IL119A3V16-9GS-ALB8-9GS-81A12V4 (bispecific antibody, part only; not given: anti-albumin Nanobody, part only) chain, part: EVQLLESGGGLVQPGGSLRLSCAASGRIFSLPASGNIFNLLTIAWYRQAPGKGRELVATINSGSRTYYADSVKGRFTISRDNSKKTLYLQMNSLRPEDTAVYYCQTSGSGSPNFWGQGTLVTVSSGGGGSGGGSGGGGSGGGSEVQLLESGGGLVQPGGSLRLSCAASGRTLSSYAMGWFRQAPGKGREFVSRISQGGTAIYYADSVKGRFTISRDNSKNTLYLQMNSLRPEDTAVYYCAKDPSPYYRGSAYLLSGSYDSWGQGTLVTVSS"
group = "true"

[[record]]
binder = "P23IL119A3-9GS-ALB1-9GS-81G2 (bispecific antibody, part only; not given: anti-albumin Nanobody, part only) chain, part: EVQLVESGGGLVQAGGSLRLSCAASGRIFSLPASGNIFNLLTIAWHRQAPGMQRELVATINSGSRTNYADSVKGRFTISRDNAQKTVYLQMNNLKPEDTAVYYCQTSGSGSPNFWGQGTQVTVSSGGGGSGGGSGGGGSGGGSEVQLVESGGGLVQPGGSLRLSCIASGLPFSTKSMGWFRQAPGKEREFVARISPGGTSRYYGDFVKGRFAISRDNAKNTTWLQMNSLKAEDTAVYYCASGERSTYIGSNYYRTNEYDYWGTGTQVTVSS"
group = "true"


Incoming: Strictly below 5 pM in IC50, splenocyte assay, 19 pM hIL-23? P23IL37D5-9GS-ALB1 (bispecific antibody, part only; not given: anti-albumin Nanobody, part only) chain, part: EVQLVESGGGLVQPGGSLRLSCAASGFTLDYLAIGWFRQAPGKEREGVSCVSSSGQYTYYADSVKGRFTISRDNAESTVYLQMNSLKPEDTAVYYCATDPECYRVRGYYNGEYDYWGQGTQVTVSSGGGGSGGGS
Outgoing: false

Incoming: I'd appreciate it if you could check whether P23IL-121A2-9GS-ALB1-9GS-81G2 (bispecific antibody, part only; not given: anti-albumin Nanobody, part only) chain, part: EVQLVESGGGLVQAGGSLRLSCAASGSIFNFNYMGWFRQAPGKEREFVAAIRWSGSSTYYADSVKGRFTISRDDAKNTVALQMNSLKPEDTAIYYCALRKGIPYSTSDRVIKGVNDYDYWGQGTQVTVSSGGGGSGGGSGGGGSGGGSEVQLVESGGGLVQPGGSLRLSCIASGLPFSTKSMGWFRQAPGKEREFVARISPGGTSRYYGDFVKGRFAISRDNAKNTTWLQMNSLKAEDTAVYYCASGERSTYIGSNYYRTNEYDYWGTGTQVTVSS has IC50, splenocyte assay, 19 pM hIL-23 smaller than 5 pM.
Outgoing: false
